- Test system: MDA-MB-231 cells
- PROCEDURE SUMMARY: Vacuolation of MDA-MB-231 cells caused by inhibition of compounds on PIKfyve (microscopy); note: key: '+' represents the degree of vacuolation; ++: more '+' indicates more obvious vacuolation; +++: more '+' indicates more obvious vacuolation; ++++: more '+' indicates more obvious vacuolation; '−' represents no vacuolation
- Format: cell-based
- CONDITIONS: MDA-MB-231 cells, 10 μM, 24 h
ASSAY METRIC: degree of vacuolation, 10 μM, 24 h

Some solved cases for reference:
compound=Cc1ccc(C(=O)Nc2cccc(C(F)(F)F)c2)cc1Nc1nc(-c2cccnc2)c2[nH]ccc2n1 assay_metric="degree of vacuolation, 10 μM, 24 h" measured_result=+
compound=O=C(Nc1cccc(Nc2cc(-c3cccnc3)nc3sccc23)c1)c1cccc(C(F)(F)F)c1 assay_metric="degree of vacuolation, 10 μM, 24 h" measured_result=++
compound=Cc1ccc(NC(=O)c2cccc(C(F)(F)F)c2)cc1Nc1nc(-c2cccnc2)nc2[nH]cnc12 assay_metric="degree of vacuolation, 10 μM, 24 h" measured_result=+
compound=Cc1ccc(C(=O)Nc2cccc(C(F)(F)F)c2)cc1Nc1nc(-c2ccncc2)nc2[nH]cnc12 assay_metric="degree of vacuolation, 10 μM, 24 h" measured_result=+

Alright, here's another compound for you.
Input line: Would you mind telling me what degree of vacuolation, 10 μM, 24 h value was observed for "Cc1ccc(NC(=O)c2cccc(C(F)(F)F)c2)cc1Nc1nc(-c2ccncc2)nc2ccn(C)c12" ?
Output line: ++

====

- MEASURED ON: PIKfyve protein (Homo sapiens (Human), UniProt Q9Y2I7)
- Sequence (Q9Y2I7 whole entry): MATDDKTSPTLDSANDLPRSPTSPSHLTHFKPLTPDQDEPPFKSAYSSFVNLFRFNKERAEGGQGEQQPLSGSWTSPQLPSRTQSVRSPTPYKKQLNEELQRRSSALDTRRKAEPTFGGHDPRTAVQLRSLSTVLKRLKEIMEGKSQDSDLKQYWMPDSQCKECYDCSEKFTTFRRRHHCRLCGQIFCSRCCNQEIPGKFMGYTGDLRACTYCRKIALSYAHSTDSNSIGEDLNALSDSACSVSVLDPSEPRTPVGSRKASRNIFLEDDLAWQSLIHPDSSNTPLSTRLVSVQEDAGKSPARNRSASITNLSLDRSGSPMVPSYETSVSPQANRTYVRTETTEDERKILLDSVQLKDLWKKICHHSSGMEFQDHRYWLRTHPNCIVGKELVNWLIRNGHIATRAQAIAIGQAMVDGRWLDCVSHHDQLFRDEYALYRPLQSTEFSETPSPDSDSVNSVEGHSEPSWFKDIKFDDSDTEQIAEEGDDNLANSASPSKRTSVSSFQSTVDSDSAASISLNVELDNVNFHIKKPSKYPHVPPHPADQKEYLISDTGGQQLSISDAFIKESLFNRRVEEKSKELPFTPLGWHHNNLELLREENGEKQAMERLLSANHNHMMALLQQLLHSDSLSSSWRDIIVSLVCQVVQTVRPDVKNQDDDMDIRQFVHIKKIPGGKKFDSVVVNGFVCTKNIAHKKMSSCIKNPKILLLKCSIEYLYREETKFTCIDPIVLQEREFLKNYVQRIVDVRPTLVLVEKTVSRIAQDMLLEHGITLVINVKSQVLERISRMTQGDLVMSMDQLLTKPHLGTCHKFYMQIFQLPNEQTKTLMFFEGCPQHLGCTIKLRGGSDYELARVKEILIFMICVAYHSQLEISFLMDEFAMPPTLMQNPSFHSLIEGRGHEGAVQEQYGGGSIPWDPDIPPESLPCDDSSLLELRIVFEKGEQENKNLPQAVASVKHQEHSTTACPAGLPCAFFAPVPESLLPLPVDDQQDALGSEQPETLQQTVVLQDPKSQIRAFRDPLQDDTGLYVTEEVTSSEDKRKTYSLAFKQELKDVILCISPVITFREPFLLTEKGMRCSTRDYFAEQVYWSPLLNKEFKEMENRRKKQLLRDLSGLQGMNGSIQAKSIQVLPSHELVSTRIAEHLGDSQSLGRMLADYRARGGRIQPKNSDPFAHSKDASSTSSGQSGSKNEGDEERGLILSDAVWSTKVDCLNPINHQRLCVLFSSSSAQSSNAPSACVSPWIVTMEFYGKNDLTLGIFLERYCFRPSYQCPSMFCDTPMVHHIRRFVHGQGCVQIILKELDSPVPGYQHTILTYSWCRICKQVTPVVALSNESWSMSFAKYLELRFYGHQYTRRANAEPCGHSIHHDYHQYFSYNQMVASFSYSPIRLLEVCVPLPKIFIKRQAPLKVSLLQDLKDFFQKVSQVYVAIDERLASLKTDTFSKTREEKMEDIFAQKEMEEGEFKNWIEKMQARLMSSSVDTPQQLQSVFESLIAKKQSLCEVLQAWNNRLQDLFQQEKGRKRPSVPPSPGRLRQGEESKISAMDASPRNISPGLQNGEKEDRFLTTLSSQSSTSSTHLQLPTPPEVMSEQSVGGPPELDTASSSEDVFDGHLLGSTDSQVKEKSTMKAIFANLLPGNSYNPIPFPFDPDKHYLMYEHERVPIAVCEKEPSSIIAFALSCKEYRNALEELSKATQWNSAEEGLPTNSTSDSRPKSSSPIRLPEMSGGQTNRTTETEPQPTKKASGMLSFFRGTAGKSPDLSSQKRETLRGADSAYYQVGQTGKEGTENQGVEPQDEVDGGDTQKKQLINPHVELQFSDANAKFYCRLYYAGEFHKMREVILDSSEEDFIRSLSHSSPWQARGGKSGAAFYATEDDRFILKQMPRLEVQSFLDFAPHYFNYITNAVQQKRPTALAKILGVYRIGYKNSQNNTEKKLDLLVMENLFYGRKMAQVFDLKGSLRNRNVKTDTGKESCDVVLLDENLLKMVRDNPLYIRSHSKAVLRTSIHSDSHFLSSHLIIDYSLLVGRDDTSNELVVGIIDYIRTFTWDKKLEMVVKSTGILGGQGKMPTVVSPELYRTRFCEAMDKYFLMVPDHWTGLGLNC
Note to self: use true only for Kd readings below 100 nM; a reading exactly at 100 nM still gets false.

structure_string=Cc1ccc(NC(=O)c2cccc(C(F)(F)F)c2)cc1Nc1nc(-c2ccccc2)c2[nH]ccc2n1 class_assignment=false
structure_string=Cc1ccc(C(=O)Nc2cccc(NS(C)(=O)=O)c2)cc1Nc1nc(-c2cccnc2)c2[nH]ccc2n1 class_assignment=true
structure_string=Cc1ccc(NC(=O)c2ccc(C(F)(F)F)cc2)cc1Nc1nc(-c2cccnc2)c2[nH]ccc2n1 class_assignment=true

Input line: In the record for "Cc1ccc(C(=O)Nc2cccc(OC(F)(F)F)c2)cc1Nc1nc(-c2cccs2)c2[nH]ccc2n1" , is Kd less than 100 nM?
Output line: false

Input line: And what about the compound "Cc1ccc(C(=O)Nc2ccc(CN3CCN(C)CC3)c(C(F)(F)F)c2)cc1Nc1nc(-c2cccnc2)c2[nH]ccc2n1" ?
Output line: false

Input line: And what about the compound "CS(=O)(=O)Nc1cccc(Nc2nc(-c3cccnc3)c3[nH]ccc3n2)c1" ?
Output line: false

Input line: And what about the compound "Cc1cn(-c2cc(NC(=O)c3ccc(C)c(Nc4nc(-c5cccnc5)c5[nH]ccc5n4)c3)cc(C(F)(F)F)c2)cn1" ?
Output line: false

====

Reported pIC50 values for the following molecules.
- System: JeKo-1 cells
- PROCEDURE SUMMARY: Tumor cell growth inhibition by MTS method, JeKo-1
- Format: cell-based
- CONDITIONS: Homo sapiens, JeKo-1, 120 h, 5 days of culture
Bear in mind: pIC50 is minus log10 of a mol/L concentration; give just that figure.

Some solved cases for reference:
structure_string=Cc1ccc(C(=O)Nc2cccc(C(F)(F)F)c2)cc1Nc1nc(-c2cccnc2)c2[nH]ccc2n1 measured_on="JeKo-1 cells" measured_result=5.48
structure_string=Cc1ccc(NS(=O)(=O)c2cccc(C(F)(F)F)c2)cc1Nc1nc(-c2cccnc2)c2[nH]ccc2n1 measured_on="JeKo-1 cells" measured_result=5.03
structure_string=Cc1ccc(Nc2nc(-c3cccc(NC(=O)c4ccc(N)nc4)c3)nc3ccsc23)nc1 measured_on="JeKo-1 cells" measured_result=5.94
structure_string=COc1ccc(C(F)(F)F)cc1NC(=O)c1ccc(C)c(Nc2nc(-c3cccnc3)c3[nH]ccc3n2)c1 measured_on="JeKo-1 cells" measured_result=5.55
structure_string=Cc1ccc(C(=O)Nc2cccc(C(F)(F)F)c2)cc1Nc1nc(-c2cccnc2)nc2c1ccn2C measured_on="JeKo-1 cells" measured_result=5.55

Input line: Would you mind telling me what pIC50 value was observed for "Cc1ccc(C(=O)Nc2cccc(NS(C)(=O)=O)c2)cc1Nc1nc(-c2cccnc2)c2[nH]ccc2n1" ?
Output line: 5.31

Input line: And what about the molecule "Cn1ncc2c(NCc3cccnc3)nc(-c3cccc(NC(=O)Nc4cccc(C(F)(F)F)c4)c3)nc21" ?
Output line: 5.17

Input line: And what about the molecule "O=C(Nc1cccc(Nc2cc(-c3ccncc3)nc3sccc23)c1)c1cccc(C(F)(F)F)c1" ?
Output line: 5.49

Input line: And what about the molecule "Cc1ccc(NC(=O)c2cccc(C(F)(F)F)c2)cc1Nc1nc(-c2cccnc2)nc2c1cnn2C" ?
Output line: 5.73

Input line: And what about the molecule "Cc1ccc(Nc2nc(-c3cccc(NC(=O)c4cccc(C(F)(F)F)c4)c3)nc3ccsc23)cn1" ?
Output line: 5.57

Input line: And what about the molecule "Cc1ccc(C(=O)Nc2cccc(C(F)(F)F)c2)cc1Nc1cc(-c2ccncc2)nc2sccc12" ?
Output line: 5.70

Input line: And what about the molecule "O=C(Nc1cccc(C(F)(F)F)c1)c1cccc(Nc2nc(-c3cccnc3)c3[nH]ccc3n2)c1" ?
Output line: 5.23

Input line: And what about the molecule "O=C(Nc1cccc(Nc2cc(-c3cccnc3)nc3sccc23)c1)c1cccc(C(F)(F)F)c1" ?
Output line: 5.57

Input line: And what about the molecule "Cc1ccc(C(=O)Nc2ccc(CN3CCN(C)CC3)c(C(F)(F)F)c2)cc1Nc1cc(-c2ccncc2)nc2[nH]ccc12" ?
Output line: 5.67

Input line: And what about the molecule "Cc1ccc(NC(=O)c2cccc(C(F)(F)F)c2)cc1Nc1cc(-c2cccnc2)nc2sccc12" ?
Output line: 5.70

Input line: And what about the molecule "Cc1ccc(C(=O)Nc2cccc(C(F)(F)F)c2)cc1Nc1cc(-c2cccnc2)nc2[nH]ccc12" ?
Output line: 5.60
